# SYSTEM NAME: Muscarinic acetylcholine receptor M1 (Rattus norvegicus)
# ASSAY REMARKS: qHTS Assay for Antagonists of Acetylcholine Muscarinic M1 Receptor: Measurement of IP-One Response (AID 944); further: nearly all actives have a fitted effect of over 75% in size; further: potency means the concentration at half of the fitted maximal effect
# CONDITION: CHO-M1 cells, IP-One HTRF, antagonist mode; series mostly up to 46.1 µM
Results filed as inconclusive are left out. The source made the active and inactive calls. The call rests on the fitted dose curve; in most records, active means well fitted inhibition curve with a large enough effect; inconclusive means small, poorly fitted or top-dose-only effect; inactive means no such curve, though single readings can be large or run the other way.
ENDPOINT LABEL: Potency

Look over these answered cases.
[[record]]
molecule = "NCCS(=O)(=O)O"
endpoint_label = "Potency"
value_measured = "inactive"

[[record]]
molecule = "Nc1ccn([C@H]2CC[C@@H](CO)O2)c(=O)n1"
endpoint_label = "Potency"
value_measured = "inactive"

[[record]]
molecule = "CCCCc1oc2ccccc2c1C(=O)c1cc(I)c(OCCN(CC)CC)c(I)c1"
endpoint_label = "Potency"
value_measured = "inactive"

[[record]]
molecule = "Cc1ccc(C(=O)Nc2ccc(S(=O)(=O)O)c3cc(S(=O)(=O)O)cc(S(=O)(=O)O)c23)cc1NC(=O)c1cccc(NC(=O)Nc2cccc(C(=O)Nc3cc(C(=O)Nc4ccc(S(=O)(=O)O)c5cc(S(=O)(=O)O)cc(S(=O)(=O)O)c45)ccc3C)c2)c1"
endpoint_label = "Potency"
value_measured = "inactive"

[[record]]
molecule = "CN(C)CCC=C1c2ccccc2C=Cc2ccccc21"
endpoint_label = "Potency"
value_measured = "112 nM (active)"

[[record]]
molecule = "O=C1c2c(O)ccc(O)c2C(=O)c2c(NCCNCCO)ccc(NCCNCCO)c21"
endpoint_label = "Potency"
value_measured = "5010 nM (active)"


Summary line: COc1ccc(C2CNC(=O)C2)cc1OC1CCCC1 (stereo not drawn) , Muscarinic acetylcholine receptor M1 (Rattus norvegicus), reported Potency = inactive

// Potency (Muscarinic acetylcholine receptor M1 (Rattus norvegicus)) for N[C@@H](Cc1c[nH]c2ccc(O)cc12)C(=O)O = inactive

Log: Muscarinic acetylcholine receptor M1 (Rattus norvegicus), molecule CCOC(=O)Nc1ccc(NCc2ccc(F)cc2)nc1N , Potency = inactive

Param item: O=C(c1ccc(F)cc1)C1CCN(CCn2c(=O)[nH]c3ccccc3c2=O)CC1 ; param system: Muscarinic acetylcholine receptor M1 (Rattus norvegicus); output Potency: inactive

# lookup: COc1cc2c(c(OC)c1OC)-c1ccc(OC)c(=O)cc1[C@@H](NC(C)=O)CC2 on Muscarinic acetylcholine receptor M1 (Rattus norvegicus), Potency = inactive

CCOC(=O)C(C)(C)Oc1ccc(Cl)cc1 tested on Muscarinic acetylcholine receptor M1 (Rattus norvegicus) gave Potency: inactive

Response field Potency (Muscarinic acetylcholine receptor M1 (Rattus norvegicus)) for item COc1ccc2[nH]cc(CCNC(C)=O)c2c1 : inactive

----------
# SYSTEM NAME: Thioredoxin reductase 1, cytoplasmic (Rattus norvegicus) (UniProt O89049)
# Sequence (O89049 whole entry, looked up): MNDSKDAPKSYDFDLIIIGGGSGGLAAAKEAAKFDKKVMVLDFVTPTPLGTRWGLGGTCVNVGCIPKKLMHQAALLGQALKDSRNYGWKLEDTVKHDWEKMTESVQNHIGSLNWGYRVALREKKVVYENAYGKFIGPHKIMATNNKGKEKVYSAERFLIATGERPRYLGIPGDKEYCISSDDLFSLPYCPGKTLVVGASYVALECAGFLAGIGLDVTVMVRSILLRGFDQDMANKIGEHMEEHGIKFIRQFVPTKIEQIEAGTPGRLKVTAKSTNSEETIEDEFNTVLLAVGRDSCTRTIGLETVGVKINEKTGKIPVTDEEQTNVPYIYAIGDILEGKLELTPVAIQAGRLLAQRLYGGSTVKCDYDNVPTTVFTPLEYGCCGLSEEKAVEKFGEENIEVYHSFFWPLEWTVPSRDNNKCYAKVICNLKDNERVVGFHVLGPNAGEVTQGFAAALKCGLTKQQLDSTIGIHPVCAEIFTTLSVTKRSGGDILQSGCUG
# ASSAY REMARKS: qHTS Assay for Substrates of Mammalian Selenoprotein Thioredoxin Reductase 1 (TrxR1) (AID 488772);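 further: NADPH fluorescence in the first read after selenite addition and not the 8 min delta; a drop in NADPH fluorescence below the no-compound background marks a TrxR1 substrate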
# CONDITION: purified TrxR1, NADPH consumption substrate assay; series mostly up to 57.1 µM
# Description: The selenoprotein thioredoxin reductase (TrxR; EC 1.8.1.9) is a FAD containing homodimeric pyridine nucleotide-disulfide oxidoreductase with many cellular roles. Together with NADPH and its prime substrate thioredoxin (Trx), the enzyme forms the core of the Trx system. […] This BioAssay is a validation of an NADPH fluorescence-based, dual-purpose qHTS rTrxR1 assay designed to find potential inhibitors and substrates of rTrxR1. […]
Inconclusive results are not listed. Active and inactive are the calls of the source. Calls follow the shape of the dose curve; as a rule, active = well fitted curve in the direction sought with a large enough effect; inconclusive = small, poorly fitted or top-dose-only effect, or another doubt; inactive = no such curve, though single readings can be large or run the other way.
ENDPOINT LABEL: outcome

[[record]]
mol = "CCCCc1oc2ccccc2c1C(=O)c1cc(I)c(OCCN(CC)CC)c(I)c1"
value_measured = "inactive"

[[record]]
mol = "OCCN1CCN(CCCN2c3ccccc3Sc3ccc(C(F)(F)F)cc32)CC1"
value_measured = "inactive"

[[record]]
mol = "CN1C(C(=O)Nc2ccccn2)=C(O)c2ccccc2S1(=O)=O"
value_measured = "inactive"

